- TARGET_UNDER_TEST: mouse RORγ (Mus musculus)
- Construct: mouse, NM_011281.2 and from Ile251 to Lys516; expressed in transfected cells; host or cells: CHO cells (transient co-transfection with pG5-Luc reporter)
- EXPERIMENT: Luciferase reporter gene assay of inhibitory effect against RORγ transcriptional activity (GAL4-mRORγ plasmid in CHO cells)
- Assay type: cell-based
- CONDITION_SUMMARY: read-out: LUC EC50 (μM) mRORg
Measured EC50 by item
ASSAY_METRIC: EC50

- COMPOUND: "CCn1c(CCC(=O)Nc2cc(C)cc(C)c2)nnc1CCC1CCCC1"
  ASSAY_METRIC: "EC50"
  VALUE_REPORTED: "> 3 µM"
- COMPOUND: "COc1cc(C)c(Cl)cc1CNC(=O)CCc1nnc(CCC(C)C)n1C1CC1"
  ASSAY_METRIC: "EC50"
  VALUE_REPORTED: "> 3 µM"
- COMPOUND: "Cc1ccc(NC(=O)CCc2nnc(CCC3CCCCC3)n2C2CC2)c(C)c1"
  ASSAY_METRIC: "EC50"
  VALUE_REPORTED: "< 3 µM"
- COMPOUND: "CCn1c(CCC2CCCCC2)nnc1[C@H]1C[C@@H]1C(=O)Nc1cccc2ccccc12 (racemic) [Example F-36]"
  ASSAY_METRIC: "EC50"
  VALUE_REPORTED: "> 3 µM"
- COMPOUND: "CC(C)CCc1nnc(CCC(=O)Nc2ccccc2)n1C1CC1"
  ASSAY_METRIC: "EC50"
  VALUE_REPORTED: "> 3 µM"
- COMPOUND: "CC(=O)N1C[C@H](C(=O)Nc2ccc(C)cc2C)[C@@H](c2nnc(CCOC(C)(C)C(F)(F)F)n2C2CC2)C1 (racemic)"
  ASSAY_METRIC: "EC50"
  VALUE_REPORTED: "< 3 µM"
- COMPOUND: "CC(C)CCc1nnc(CCC(=O)NC2CCCCC2C)n1C1CC1 (centres unmarked)"
  ASSAY_METRIC: "EC50"
  VALUE_REPORTED: "> 3 µM"
- COMPOUND: "Cc1c(Cl)cccc1NC(=O)CCc1nnc(CCN2CCCCC2=O)n1C1CC1"
  ASSAY_METRIC: "EC50"
  VALUE_REPORTED: "> 3 µM"

* * *

Each entry below carries its recorded EC50.
- TARGET_UNDER_TEST: mouse RORγ (Mus musculus)
- Construct: mouse, NM_011281.2 and from Ile251 to Lys516; expressed in transfected cells; host or cells: CHO cells (transient co-transfection with pG5-Luc reporter)
- EXPERIMENT: Luciferase reporter gene assay of inhibitory effect against RORγ transcriptional activity (GAL4-mRORγ plasmid in CHO cells)
- Assay type: cell-based
- CONDITION_SUMMARY: read-out: LUC EC50 (μM) mRORg
ASSAY_METRIC: EC50

- COMPOUND: "Cc1c(Cl)cccc1NC(=O)[C@H]1CN(C(=O)CO)C[C@@H]1c1nnc(CCC(C)C)n1C1CC1 (racemic)"
  VALUE_REPORTED: "< 3 µM"
- COMPOUND: "Cc1ccc(NC(=O)CCc2nnc([C@H]3C[C@H](CC4CCCC4)C3)n2C2CC2)c(C)c1"
  VALUE_REPORTED: "< 3 µM"
- COMPOUND: "Cc1ccc(NC(=O)CCc2nnc(CCC(C)C)n2C2CC2)cc1C"
  VALUE_REPORTED: "> 3 µM"
- COMPOUND: "CCCc1ccccc1NC(=O)CCc1nnc(CCC(C)C)n1C1CC1"
  VALUE_REPORTED: "> 3 µM"

* * *

Recorded EC50 values for a group of molecules are listed next.
- TARGET_UNDER_TEST: mouse RORγ (Mus musculus, UniProt P51450)
- Construct: mouse, NM_011281.2 and from Ile251 to Lys516; expressed in transfected cells; host or cells: CHO cells (transient co-transfection with pG5-Luc reporter)
- Sequence (P51450 251-516): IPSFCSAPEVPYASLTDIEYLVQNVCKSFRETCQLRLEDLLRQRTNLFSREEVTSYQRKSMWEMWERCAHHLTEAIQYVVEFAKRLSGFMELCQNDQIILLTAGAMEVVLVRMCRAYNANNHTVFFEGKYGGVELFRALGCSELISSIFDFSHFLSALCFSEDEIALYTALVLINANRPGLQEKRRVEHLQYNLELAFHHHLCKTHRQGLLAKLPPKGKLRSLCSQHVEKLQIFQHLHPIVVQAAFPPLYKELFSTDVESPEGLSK
- EXPERIMENT: Luciferase reporter gene assay of inhibitory effect against RORγ transcriptional activity (GAL4-mRORγ plasmid in CHO cells)
- Format: cell-based
- CONDITION_SUMMARY: read-out: LUC EC50 (μM) mRORg

- MOLECULE: "CC(C)CCc1nnc(CCC(=O)NCc2ccccc2)n1C1CC1"
  EC50: "> 3 µM"
- MOLECULE: "CCn1c(CCC(=O)Nc2cc(C)cc(C)c2)nnc1C1Cc2ccccc2C1"
  EC50: "< 3 µM"
- MOLECULE: "COCc1ccc(NC(=O)CCc2nnc(CCC(C)C)n2C2CC2)c(C)c1"
  EC50: "> 3 µM"
- MOLECULE: "Cc1ccc(NC(=O)CC(Cc2ccccc2)c2nnc(CCCC(C)(C)C)n2C2CC2)c(C)c1 (racemic)"
  EC50: "< 3 µM"
- MOLECULE: "Cc1ccc(NC(=O)C[C@H](CCC(=O)O)c2noc(-c3cn(CCC(C)(C)C)nc3C(F)(F)F)c2C2CC2)c(F)c1"
  EC50: "> 3 µM"
- MOLECULE: "CCC(CC)C[C@H]1C[C@H](c2nnc(CCC(=O)Nc3ccc(C)cc3C)n2C2CC2)C1"
  EC50: "< 3 µM"
- MOLECULE: "Cc1c(Cl)cccc1NC(=O)CC(CCO)c1nnc(CCC2CCCCC2)n1C1CC1 (racemic)"
  EC50: "< 3 µM"
- MOLECULE: "C=CC[C@H](CC(=O)Nc1ccc(C)cc1C)c1nnc(CCCC(C)(C)C)n1C1CC1"
  EC50: "< 3 µM"
- MOLECULE: "Cc1c(Cl)cccc1NC(=O)CC(CCN1C(=O)c2ccccc2C1=O)c1nnc(CCCC(C)C)n1C1CC1 (racemic)"
  EC50: "< 3 µM"
- MOLECULE: "CC(=O)N1CC[C@H](C(=O)Nc2ccc(C)cc2C)[C@H]1c1nnc(CCC2CCCCC2)n1C1CC1"
  EC50: "< 3 µM"
- MOLECULE: "Cc1ccccc1CCNC(=O)CCc1nnc(CCC(C)C)n1C1CC1"
  EC50: "> 3 µM"
- MOLECULE: "CC(C)CCc1nnc(CCC(=O)Nc2ccccc2Cl)n1C1CC1"
  EC50: "> 3 µM"
- MOLECULE: "CC(=O)N1C[C@H](C(=O)Nc2cc(C)ccc2C)[C@@H](c2nnc(CCCC(C)(C)C)n2C2CC2)C1 (racemic)"
  EC50: "< 3 µM"
- MOLECULE: "CCn1c(CCC(=O)Nc2cccc(Cl)c2C)nnc1CCC1CCCC1"
  EC50: "< 3 µM"
- MOLECULE: "Cc1cnccc1NC(=O)CCc1nnc(CCC(C)C)n1C1CC1"
  EC50: "> 3 µM"
- MOLECULE: "Cc1ccc(NCc2nnc(CCC(=O)Nc3cccc(Cl)c3C)n2C2CC2)c(C)c1"
  EC50: "< 3 µM"
- MOLECULE: "CC(C)CCc1nnc(CCC(=O)NCc2cccc3[nH]ncc23)n1C1CC1"
  EC50: "> 3 µM"
- MOLECULE: "Cc1ccc(NC(=O)CC(CC(N)=O)c2nnc(CCCC(C)C)n2C2CC2)c(C)c1 (racemic)"
  EC50: "> 3 µM"
- MOLECULE: "CC(=O)N1CCCC(CCc2nnc(CCC(=O)Nc3cccc(Cl)c3C)n2C2CC2)C1 (racemic)"
  EC50: "> 3 µM"
- MOLECULE: "Cc1ccc(NC(=O)C[C@H](CCC(=O)O)c2noc(-c3cc(CCC(C)C)on3)c2C2CC2)c(Cl)c1"
  EC50: "< 3 µM"
- MOLECULE: "Cc1ccc(NC(=O)CCc2nnc([C@H]3C[C@H](CC(C)(C)C)C3)n2C2CC2)c(C)c1"
  EC50: "< 3 µM"
- MOLECULE: "Cc1c(Cl)cccc1NC(=O)CCc1nnc(CCC(=O)O)n1C1CC1"
  EC50: "> 3 µM"
- MOLECULE: "Cc1c(Cl)cccc1NC(=O)CCc1nnc(CCC(C)(C)C(=O)N(C)C)n1C1CC1"
  EC50: "> 3 µM"
- MOLECULE: "CCn1c(CCC(=O)Nc2ccc(C)cc2C)nnc1CCC1CCCC1"
  EC50: "< 3 µM"
- MOLECULE: "Cc1c(Cl)cccc1NC(=O)CCc1nnc(CCN(C)C(C)(C)C)n1C1CC1"
  EC50: "> 3 µM"
- MOLECULE: "CCn1c(C2Cc3ccccc3C2)nnc1[C@@H]1C[C@@H]1C(=O)Nc1cccc2ccccc12 (racemic)"
  EC50: "< 3 µM"
- MOLECULE: "CC(=O)N1C[C@@H](C(=O)Nc2ccc(C)cc2C)[C@H](c2nnc(CCC3CCCCC3)n2C2CC2)C1"
  EC50: "> 3 µM"
- MOLECULE: "CCn1c(CCC(=O)Nc2cccc(Cl)c2C)nnc1CCC(C)C"
  EC50: "< 3 µM"
- MOLECULE: "Cc1cccc(NC(=O)CCc2nnc(CCC(C)C)n2C2CC2)c1"
  EC50: "> 3 µM"
- MOLECULE: "Cc1cc(O)ccc1CNC(=O)CCc1nnc(CCC(C)C)n1C1CC1"
  EC50: "> 3 µM"
- MOLECULE: "Cc1cccc(CNC(=O)CCc2nnc(CCC(C)C)n2C2CC2)c1"
  EC50: "> 3 µM"
- MOLECULE: "CCn1c(CCC(=O)Nc2cccc3c2CCCC3)nnc1C1Cc2ccccc2C1"
  EC50: "< 3 µM"
